Measured values drawn from ChEMBL document CHEMBL5058577 for this set.

System: Fibroblast
Run description: Multiplex assay against human fibroblast
Type: toxicity, cell-based
Test parameters: 48 h, 10 µM, compound concentration 10 uM, replicate 1
Experimental readout: Total Cell Count

These recorded examples may help you get a feel for the data.
| Molecule | Measured target | Total Cell Count |
| --- | --- | --- |
| COc1cc2nc(N3CCN(C(=O)c4ccco4)CC3)nc(N)c2cc1OC.Cl [PRAZOSIN HYDROCHLORIDE] | Fibroblast | 201 |
| Nc1nc(CC(=O)Nc2ccc(CCNC[C@H](O)c3ccccc3)cc2)cs1 [MIRABEGRON] | Fibroblast | 194 |
| C[C@@H]1CC(=O)Nc2cccc(-c3ccc4c(c3)c(-c3cnn(C)c3)nn4C)c2N1 | Fibroblast | 162 |

stdin: Dear colleague, I am looking for the recorded Total Cell Count of the following molecule: Cc1cc(=O)n(C)c2cc(N3C(=O)CC[C@H](NS(=O)(=O)CC(C)C)[C@H]3c3ccc(Cl)cc3)ccc12
stdout: 153

stdin: Dear colleague, I am looking for the recorded Total Cell Count of the following molecule: CN1CCN2c3ccccc3Cc3ccccc3C2C1.Cl (stereo not drawn) [MIANSERIN HYDROCHLORIDE]
stdout: 115

stdin: Dear colleague, I am looking for the recorded Total Cell Count of the following molecule: O=C(NCCNCC(O)COc1ccc(O)cc1)N1CCOCC1.O=C(NCCNCC(O)COc1ccc(O)cc1)N1CCOCC1.O=C(O)/C=C/C(=O)O (stereo not drawn) [XAMOTEROL FUMARATE]
stdout: 144

stdin: Dear colleague, I am looking for the recorded Total Cell Count of the following molecule: Nc1nc(-c2ccco2)c2cnn(Cc3ccccc3F)c2n1
stdout: 115

stdin: Dear colleague, I am looking for the recorded Total Cell Count of the following molecule: Cl.Cl.OCCOCCN1CCN(C(c2ccccc2)c2ccc(Cl)cc2)CC1 (stereo not drawn) [HYDROXYZINE HYDROCHLORIDE]
stdout: 272
